// data source = patent US20210198277A1

# Target Under Test: EHMT2 (Homo sapiens)
# Construct: host or cells: MDA-MB-231
# Sequence (Q96KQ7 1-1210): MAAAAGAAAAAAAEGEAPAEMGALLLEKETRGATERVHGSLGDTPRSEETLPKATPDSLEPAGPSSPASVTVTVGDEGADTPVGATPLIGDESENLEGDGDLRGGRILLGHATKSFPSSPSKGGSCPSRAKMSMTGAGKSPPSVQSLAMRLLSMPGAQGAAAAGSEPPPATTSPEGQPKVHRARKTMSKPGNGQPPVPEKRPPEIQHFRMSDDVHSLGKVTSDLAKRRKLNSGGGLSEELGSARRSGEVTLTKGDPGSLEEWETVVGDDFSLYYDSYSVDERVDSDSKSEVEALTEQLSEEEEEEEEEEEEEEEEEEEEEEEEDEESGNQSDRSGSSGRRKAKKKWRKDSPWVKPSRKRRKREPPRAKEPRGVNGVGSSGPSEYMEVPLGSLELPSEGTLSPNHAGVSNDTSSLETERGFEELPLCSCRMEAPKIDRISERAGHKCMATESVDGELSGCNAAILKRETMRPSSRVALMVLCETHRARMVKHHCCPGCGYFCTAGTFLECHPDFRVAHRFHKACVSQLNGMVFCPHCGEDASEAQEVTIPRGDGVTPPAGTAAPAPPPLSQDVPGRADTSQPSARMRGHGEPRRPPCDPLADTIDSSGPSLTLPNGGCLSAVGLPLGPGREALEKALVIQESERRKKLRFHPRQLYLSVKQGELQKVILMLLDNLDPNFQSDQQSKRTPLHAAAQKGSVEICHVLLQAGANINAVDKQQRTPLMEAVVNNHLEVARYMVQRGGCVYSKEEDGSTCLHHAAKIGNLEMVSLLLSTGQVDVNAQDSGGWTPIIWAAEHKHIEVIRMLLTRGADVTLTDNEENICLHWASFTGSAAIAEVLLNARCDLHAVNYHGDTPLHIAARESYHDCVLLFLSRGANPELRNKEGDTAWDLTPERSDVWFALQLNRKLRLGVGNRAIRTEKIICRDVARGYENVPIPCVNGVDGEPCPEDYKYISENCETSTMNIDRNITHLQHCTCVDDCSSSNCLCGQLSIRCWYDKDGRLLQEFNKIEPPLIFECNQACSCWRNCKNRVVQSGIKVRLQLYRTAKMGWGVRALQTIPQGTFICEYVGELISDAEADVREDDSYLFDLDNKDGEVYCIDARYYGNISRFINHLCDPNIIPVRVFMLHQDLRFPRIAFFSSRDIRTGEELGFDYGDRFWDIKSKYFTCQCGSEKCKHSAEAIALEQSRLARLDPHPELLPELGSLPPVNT
# Test Summary: MDA-MB-231 H3K9me2 in-cell Western assay (EHMT2 ICW)
# Format: cell-based
# Measurement Context: Table VII; read-out: EHMT2 ICW IC50
pIC50: −log10 of the molar value.
pIC50 for assorted compounds

Compound: CNc1cc(C)nc(Nc2ccc(OC)c(OC[C@H](O)CN3CC(C)C3)c2)n1 [Compound 1100]
pIC50: 5.00 to 6.00
--
Compound: CNc1ccnc(Nc2ccc(OC)c(CNC[C@H]3CCCN3)c2)n1
pIC50: < 5.00
--
Compound: CNc1ccnc(Nc2ccc(OC)c(OCC(C)(O)CN3CCC3)c2)n1 (stereo not shown)
pIC50: 6.00 to 7.00
--
Compound: CNC[C@H](COc1cc(Nc2nccc(NC)n2)ccc1OC)OC
pIC50: < 5.00
